// compounds with Ki on Hepatocyte growth factor receptor (Homo sapiens, UniProt P08581), multi-source literature

Study these solved cases before continuing.
COMPOUND: CN(C)Cc1ccc(-c2cnc(N)c(-c3nn(CCO)cc3-c3cccc(Cl)c3Cl)c2)cc1
Ki: 100 to 1000 nM
//
COMPOUND: CN(C)c1ccnc(-c2cnc3[nH]cc(-c4oncc4-c4cccc(F)c4F)c3c2)c1
Ki: 1000 to 12500 nM
//
COMPOUND: Nc1ncc(-c2cccnc2)cc1-c1nnnn1-c1c(F)ccc(F)c1Cl
Ki: 100 to 1000 nM
//
COMPOUND: Cc1c(C(=O)Nc2ccc(-c3cccc4cnccc34)cc2F)c(=O)n(-c2ccccc2)n1CC(C)(C)O
Ki: 156 nM
//
COMPOUND: Nc1ncc(-c2cnn(C3CCNCC3)c2)cc1-c1nc2cc(F)ccc2n1-c1cccc(Cl)c1F
Ki: ≤ 100 nM
//
COMPOUND: CN(C)Cc1ccc(-c2cnc(N)c(-c3nnnn3-c3cc(F)cc(F)c3Cl)c2)cc1
Ki: 100 to 1000 nM

# returns recorded Ki (system: Hepatocyte growth factor receptor (Homo sapiens, UniProt P08581)) for `CN(C)Cc1ccc(-c2cnc(N)c(-c3nn(C4CCCCC4)cc3-c3cccc(Cl)c3Cl)c2)cc1`
100 to 1000 nM

What about `Cc1cnc2c(-c3cc(N[C@@H]4CCOC4)ncn3)c(N)nn2c1` ?
< 500 nM

What about `Nc1ncc(-c2cnn(C3CCN(CCF)CC3)c2)cc1-c1nncn1-c1cccc(Cl)c1F` ?
≤ 100 nM

What about `CNC(=O)c1cccc(-c2cnc3c(-c4ccccn4)c(N)nn3c2)n1` ?
< 500 nM

----------
// compounds with Ki on Hepatocyte growth factor receptor (Homo sapiens, UniProt P08581), multi-source literature

Study these solved cases before continuing.
COMPOUND: Nc1nn2cc(-c3ccc(C(=O)N4CCCCC4)cn3)cnc2c1-c1ccccn1
ASSAY_READOUT: Ki
VALUE_REPORTED: < 500 nM
//
COMPOUND: CN1CCC(N(C)C(=O)c2ccc(-c3cnc4c(-c5ccccn5)c(N)nn4c3)nc2)CC1
ASSAY_READOUT: Ki
VALUE_REPORTED: < 500 nM
//
COMPOUND: C[C@@H](NC(=O)c1nc(-c2ccc(CN(C)C)cc2)cnc1N)c1nnc2ccc(Nc3cccc(Cl)c3)nn12
ASSAY_READOUT: Ki
VALUE_REPORTED: ≤ 250 nM
//
COMPOUND: CN(C)Cc1ccc(-c2cnc(N)c(-c3nnnn3-c3cc(F)ccc3F)c2)cc1
ASSAY_READOUT: Ki
VALUE_REPORTED: 100 to 1000 nM
//
COMPOUND: C[C@@H](NC(=O)c1nc(-c2ccc(CN3CC[C@H](O)C3)cc2)cnc1N)c1nnc2ccc(Nc3cccc(Cl)c3)nn12
ASSAY_READOUT: Ki
VALUE_REPORTED: ≤ 250 nM
//
COMPOUND: Nc1ncc(C2=CCN(C(=O)[C@@H]3CCC(=O)N3)CC2)cc1-c1nnnn1-c1cccc(F)c1F
ASSAY_READOUT: Ki
VALUE_REPORTED: ≤ 100 nM
//
COMPOUND: C[C@@H](NC(=O)c1nc(C#Cc2ccccn2)cnc1N)c1nnc2ccc(Nc3cccc(Cl)c3)nn12
ASSAY_READOUT: Ki
VALUE_REPORTED: 250 to 2500 nM
//
COMPOUND: Nc1ncc(-c2ccc(C3CCCN3)cc2)cc1-c1nnnn1-c1cccc(F)c1F (stereo not shown)
ASSAY_READOUT: Ki
VALUE_REPORTED: ≤ 100 nM
//
COMPOUND: Nc1ncc(-c2ccncc2)nc1-c1nncn1-c1cccc(F)c1F
ASSAY_READOUT: Ki
VALUE_REPORTED: 100 to 1000 nM
//
COMPOUND: Nc1nn2cc(-c3cccc(C(=O)N4CCCC4CO)n3)cnc2c1-c1ccccn1 (stereo not shown)
ASSAY_READOUT: Ki
VALUE_REPORTED: < 500 nM

Find the recorded Ki belonging to `CN(C)Cc1ccc(-c2cnc(N)c(-c3nnnn3-c3cc(F)ccc3Cl)c2)cc1` and report it.
100 to 1000 nM

What about `Nc1ncc(-c2ccc(NC(=O)CN3CCOCC3)cc2)cc1-c1nnnn1-c1cccc(F)c1F` ?
100 to 1000 nM

What about `Fc1cccc(-n2cnnc2-c2c[nH]c3ncc(-c4ccc(N5CCNCC5)nc4)cc23)c1F` ?
200 to 1000 nM

What about `CCN1CCC(c2cnc3[nH]cc(-c4oncc4-c4cccc(F)c4F)c3c2)CC1` ?
< 200 nM

What about `Nc1ncc(C2=CCCN(C(=O)C(F)(F)F)CC2)cc1-c1nnnn1-c1cccc(F)c1F` ?
100 to 1000 nM

What about `CN1CCN(c2ccc(-c3cnc4c(-c5ccccn5)c(N)nn4c3)cn2)CC1` ?
< 500 nM

What about `Nc1nn2cc(-c3ccncc3)cnc2c1-c1cccc(Br)n1` ?
500 to 5000 nM

What about `Nc1nn2cc(-c3ccccc3C(F)(F)F)cnc2c1-c1ccccn1` ?
500 to 5000 nM

What about `Nc1ncc(-c2ccc(NC(=O)c3ccco3)cc2)cc1-c1nnnn1-c1cccc(F)c1F` ?
100 to 1000 nM

What about `CC(C)(O)C#Cc1cnc2c(-c3ccccn3)c(N)nn2c1` ?
< 500 nM

What about `CSc1ncc(C(=O)Nc2ccccc2)c(Nc2ccc(Oc3ccnc(NC(=O)N4CCCC4)c3)c(F)c2)n1` ?
0.2 nM

What about `CC(C)N(CCCc1cnc2c(-c3ccccn3)c(N)nn2c1)C(C)C` ?
500 to 5000 nM

What about `CN(C)Cc1ccc(-c2cnc(N)c(-c3nnnn3-c3cccc(F)c3F)c2)cc1` ?
≤ 100 nM

What about `Nc1nn2cc(-c3ccccc3F)cnc2c1-c1ccccn1` ?
500 to 5000 nM

What about `Nc1ncc(-c2ccc(Cl)cc2)cc1-c1nncn1-c1cccc(F)c1F` ?
100 to 1000 nM

What about Nc1ncc(-c2cnn(C3CC4CCC(C3)N4)c2)cc1-c1nnnn1-c1cccc(Cl)c1F (stereo not shown) ?
≤ 100 nM

What about `CN(C)Cc1ccc(-c2cnc3c(-c4ccccn4)c(N)nn3c2)cc1` ?
< 500 nM

What about `CC(=O)c1ccccc1-c1cnc2c(-c3ccccn3)c(N)nn2c1` ?
500 to 5000 nM

What about `C[N+]1(C)CCN(c2ccc(-c3cnc4[nH]cc(-c5oncc5-c5cccc(F)c5F)c4c3)cc2)CC1` ?
< 200 nM

What about `CCCC#Cc1cnc(N)c(C(=O)N[C@H](C)c2nnc3ccc(Nc4cccc(Cl)c4)nn23)n1` ?
250 to 2500 nM

What about `CN(C)CCNC(=O)c1ccc(-c2cnc3c(-c4ccccn4)c(N)nn3c2)nc1` ?
< 500 nM
